pIC50: −log10 of the molar value.
Please provide measured pIC50 for the entries that follow.

Prompt: For Tek (Homo sapiens, UniProt Q02763), give pIC50 of the listed molecule: `COc1cc(Nc2ncnc(Nc3ccc(O)cc3C)n2)cc(OC)c1OC`
Response: < 4.93

Prompt: For Tek (Homo sapiens, UniProt Q02763), give pIC50 of the listed molecule: `COc1ccc(Nc2ncnc(Nc3ccc(C)c(O)c3)n2)cc1OC`
Response: < 4.90

Prompt: For Tek (Homo sapiens, UniProt Q02763), give pIC50 of the listed molecule: COc1cc(Nc2ncnc(N3c4ccc(F)cc4CCC3C)n2)cc(OC)c1OC (stereo not shown)
Response: 5.25 to 6.03

Prompt: For Tek (Homo sapiens, UniProt Q02763), give pIC50 of the listed molecule: `COc1ccc(Nc2ncnc(N(C/C=C/c3ccccc3)c3ccc(Cl)cc3)n2)cc1OC`
Response: < 5.02

Prompt: For Tek (Homo sapiens, UniProt Q02763), give pIC50 of the listed molecule: `CC(C)(C)OC(=O)Nc1ccc(Nc2ncnc(-c3ccccc3)n2)cc1`
Response: < 4.91

Prompt: For Tek (Homo sapiens, UniProt Q02763), give pIC50 of the listed molecule: `COc1ccc(Nc2ncnc(N(CC(=O)OC(C)(C)C)c3ccc(Cl)cc3)n2)cc1OC`
Response: < 5.02

Prompt: For Tek (Homo sapiens, UniProt Q02763), give pIC50 of the listed molecule: `c1coc(-c2cc(Nc3ncnc(Nc4ccc(N5CCOCC5)cc4)n3)[nH]n2)c1`
Response: 4.95 to 5.06

Prompt: For Tek (Homo sapiens, UniProt Q02763), give pIC50 of the listed molecule: `COc1cc(Nc2ncnc(Nc3cccc(NC(=O)O[C@@H]4CCOC4)c3)n2)cc(OC)c1OC`
Response: 5.03 to 5.14

Prompt: For Tek (Homo sapiens, UniProt Q02763), give pIC50 of the listed molecule: COc1cc(Nc2ncnc(NC3CC3c3ccccc3)n2)cc(OC)c1OC (stereo not shown)
Response: < 4.94

Prompt: For Tek (Homo sapiens, UniProt Q02763), give pIC50 of the listed molecule: `COc1cc(Nc2ncnc(Nc3ccc(Cl)cc3)n2)cc(OC)c1OC`
Response: < 4.94

Prompt: For Tek (Homo sapiens, UniProt Q02763), give pIC50 of the listed molecule: CCN(CC)C(=O)C1CCCN(c2ncnc(Nc3cc(OC)c(OC)c(OC)c3)n2)C1 (stereo not shown)
Response: < 4.99

Prompt: For Tek (Homo sapiens, UniProt Q02763), give pIC50 of the listed molecule: `COc1cc(Nc2ncnc(Nc3cccc(OC(F)(F)F)c3)n2)cc(OC)c1OC`
Response: < 4.99

Prompt: For Tek (Homo sapiens, UniProt Q02763), give pIC50 of the listed molecule: `O=c1[nH]c2ccccc2n1-c1ncnc(Nc2cccc([N+](=O)[O-])c2)n1`
Response: 5.00 to 5.16

Prompt: For Tek (Homo sapiens, UniProt Q02763), give pIC50 of the listed molecule: `NC(=O)c1ccc(Nc2ncnc(-c3cccnc3NCc3cccs3)n2)cc1`
Response: 5.23 to 6.00

Prompt: For Tek (Homo sapiens, UniProt Q02763), give pIC50 of the listed molecule: `COc1cc(Nc2ncnc(Nc3cc(-c4ccco4)n[nH]3)n2)cc(OC)c1`
Response: < 4.93

Prompt: For Tek (Homo sapiens, UniProt Q02763), give pIC50 of the listed molecule: `COc1ccc(Nc2ncnc(Nc3ccc(OCc4ccccc4)cc3)n2)cc1`
Response: 5.06 to 5.22

Prompt: For Tek (Homo sapiens, UniProt Q02763), give pIC50 of the listed molecule: `COc1cc(Nc2ncnc(-n3c(NCC(N)=O)nc4ccccc43)n2)cc(OC)c1OC`
Response: < 5.00

Prompt: For Tek (Homo sapiens, UniProt Q02763), give pIC50 of the listed molecule: `O=c1[nH]c2ccccc2n1-c1ncnc(Nc2ccc(-c3cnco3)cc2)n1`
Response: < 4.92

Prompt: For Tek (Homo sapiens, UniProt Q02763), give pIC50 of the listed molecule: `Nc1nc2ccccc2n1-c1ncnc(Nc2cccc(-c3cnco3)c2)n1`
Response: 5.19 to 5.97

Prompt: For Tek (Homo sapiens, UniProt Q02763), give pIC50 of the listed molecule: `COc1cc(Nc2ncnc(-c3cccnc3NCc3ccc(F)cc3)n2)cc(OC)c1OC`
Response: < 5.01

Prompt: For Tek (Homo sapiens, UniProt Q02763), give pIC50 of the listed molecule: `COc1ccc(Nc2ncnc(Nc3cc(-c4ccccc4)n[nH]3)n2)cc1OC`
Response: < 4.94

Prompt: For Tek (Homo sapiens, UniProt Q02763), give pIC50 of the listed molecule: `COc1cc(Nc2ncnc(N3CCc4cc([N+](=O)[O-])ccc43)n2)cc(OC)c1OC`
Response: < 4.97

Prompt: For Tek (Homo sapiens, UniProt Q02763), give pIC50 of the listed molecule: `O=c1[nH]c2ccccc2n1-c1ncnc(Nc2ccc(Cl)cc2Cl)n1`
Response: 5.19 to 5.97

Prompt: For Tek (Homo sapiens, UniProt Q02763), give pIC50 of the listed molecule: `COc1ccc(Nc2ncnc(Nc3ccc(F)c(Cl)c3)n2)cc1OC`
Response: < 4.92

Prompt: For Tek (Homo sapiens, UniProt Q02763), give pIC50 of the listed molecule: `COc1cc(Nc2ncnc(-n3c(NCc4ccccn4)nc4ccccc43)n2)cc(OCCN2CCOCC2)c1OC`
Response: 5.11 to 5.22

Prompt: For Tek (Homo sapiens, UniProt Q02763), give pIC50 of the listed molecule: `CC(C)(C)c1ccc(Nc2ncnc(-n3c(N)nc4ccccc43)n2)cc1`
Response: 5.01 to 5.18

Prompt: For Tek (Homo sapiens, UniProt Q02763), give pIC50 of the listed molecule: `COc1cc(Nc2ncnc(N3CCCc4cc(C)ccc43)n2)cc(OC)c1OC`
Response: 4.96 to 5.07

Prompt: For Tek (Homo sapiens, UniProt Q02763), give pIC50 of the listed molecule: `COc1cc(Nc2ncnc(N(Cc3ccccc3)c3nc4ccccc4[nH]3)n2)cc(OC)c1OC`
Response: 5.30 to 6.08

Prompt: For Tek (Homo sapiens, UniProt Q02763), give pIC50 of the listed molecule: `O=c1[nH]c2ccccc2n1-c1ncnc(Nc2ccncn2)n1`
Response: 4.94 to 5.11

Prompt: For Tek (Homo sapiens, UniProt Q02763), give pIC50 of the listed molecule: `COc1cc(Nc2ncnc(Nc3cc(-c4cccc(Cl)c4)n[nH]3)n2)cc(OC)c1OC`
Response: < 5.00

Prompt: For Tek (Homo sapiens, UniProt Q02763), give pIC50 of the listed molecule: `COCCOc1ccc(Nc2ncnc(Nc3ccc(C)c(F)c3)n2)cc1OCCOC`
Response: < 4.99

Prompt: For Tek (Homo sapiens, UniProt Q02763), give pIC50 of the listed molecule: `COc1cc(Nc2ncnc(Nc3cc(-c4ccc(C(=O)O)cc4)n[nH]3)n2)cc(OC)c1OC`
Response: 5.29 to 6.06

Prompt: For Tek (Homo sapiens, UniProt Q02763), give pIC50 of the listed molecule: `COc1cc(Nc2ncnc(Nc3cccc4cccnc34)n2)cc(OC)c1OC`
Response: < 4.95

Prompt: For Tek (Homo sapiens, UniProt Q02763), give pIC50 of the listed molecule: `COc1cc(Nc2ncnc(Nc3ccc(C(N)=O)cc3)n2)cc(OC)c1OC`
Response: < 4.94

====

- assayed_system: Kdr (Homo sapiens, UniProt P35968)
- Construct: Kinases are expressed as either kinase domains or full length constructs; made in house
- Sequence (P35968 20-1356, species assumed): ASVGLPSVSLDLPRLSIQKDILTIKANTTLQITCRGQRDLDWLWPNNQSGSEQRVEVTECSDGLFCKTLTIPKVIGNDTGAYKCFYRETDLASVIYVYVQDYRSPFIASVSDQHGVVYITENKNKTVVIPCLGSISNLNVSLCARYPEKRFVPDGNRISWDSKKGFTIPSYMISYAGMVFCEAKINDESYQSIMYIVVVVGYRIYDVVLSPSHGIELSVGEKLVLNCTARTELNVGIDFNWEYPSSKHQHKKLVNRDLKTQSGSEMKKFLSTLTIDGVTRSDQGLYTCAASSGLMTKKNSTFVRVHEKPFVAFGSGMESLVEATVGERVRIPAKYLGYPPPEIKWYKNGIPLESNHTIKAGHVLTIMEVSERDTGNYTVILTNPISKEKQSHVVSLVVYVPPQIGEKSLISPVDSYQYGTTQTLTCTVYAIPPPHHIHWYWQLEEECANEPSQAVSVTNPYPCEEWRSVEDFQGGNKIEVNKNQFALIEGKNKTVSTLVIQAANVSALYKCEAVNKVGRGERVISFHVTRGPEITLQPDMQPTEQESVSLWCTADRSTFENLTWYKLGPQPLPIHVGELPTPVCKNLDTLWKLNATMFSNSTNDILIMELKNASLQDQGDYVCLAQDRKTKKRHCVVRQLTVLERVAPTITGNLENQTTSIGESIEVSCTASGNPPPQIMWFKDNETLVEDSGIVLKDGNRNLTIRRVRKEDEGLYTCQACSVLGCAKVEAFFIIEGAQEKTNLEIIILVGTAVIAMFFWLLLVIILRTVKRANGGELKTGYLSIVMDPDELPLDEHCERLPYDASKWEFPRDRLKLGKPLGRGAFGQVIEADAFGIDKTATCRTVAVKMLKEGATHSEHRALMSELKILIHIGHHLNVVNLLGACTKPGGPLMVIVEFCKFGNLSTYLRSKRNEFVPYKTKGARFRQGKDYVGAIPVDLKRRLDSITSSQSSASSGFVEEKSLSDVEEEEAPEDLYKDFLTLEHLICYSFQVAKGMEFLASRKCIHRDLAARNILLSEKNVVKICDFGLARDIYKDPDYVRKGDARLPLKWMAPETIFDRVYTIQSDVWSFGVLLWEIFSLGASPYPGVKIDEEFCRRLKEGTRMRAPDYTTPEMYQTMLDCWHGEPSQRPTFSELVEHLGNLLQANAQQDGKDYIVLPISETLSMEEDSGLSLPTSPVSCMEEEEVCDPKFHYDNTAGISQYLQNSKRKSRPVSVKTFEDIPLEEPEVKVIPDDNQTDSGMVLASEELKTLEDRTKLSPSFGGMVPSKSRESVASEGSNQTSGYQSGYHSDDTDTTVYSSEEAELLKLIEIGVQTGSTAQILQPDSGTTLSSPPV
- protocol: Kinase inhibition assay (33P transfer), Kdr
- Format: biochemical
- setup_conditions: read-out: KDR-1
pIC50: −log10 of the molar value.
quantity_kind: pIC50

Prompt: For Kdr (Homo sapiens, UniProt P35968), give pIC50 of the listed compound: O=c1[nH]c2ccccc2n1-c1ncnc(Nc2cccc3ncccc23)n1 [Compound 686]
Response: < 4.90

Prompt: For Kdr (Homo sapiens, UniProt P35968), give pIC50 of the listed compound: COc1ccc(Nc2ncnc(N(C)c3ccc(Cl)c(Cl)c3)n2)cc1OC [Compound 758]
Response: 5.23 to 6.01

Prompt: For Kdr (Homo sapiens, UniProt P35968), give pIC50 of the listed compound: COc1cc(Nc2ncnc(-n3c(NCc4ncccc4C)nc4ccccc43)n2)cc(OC)c1OC [Compound 941]
Response: < 5.04

Prompt: For Kdr (Homo sapiens, UniProt P35968), give pIC50 of the listed compound: COc1cc(Nc2ncnc(Nc3cc(F)cc(C(F)(F)F)c3)n2)cc(OC)c1OC [Compound 632]
Response: 4.99 to 5.10

Prompt: For Kdr (Homo sapiens, UniProt P35968), give pIC50 of the listed compound: NC(=O)c1ccc(Nc2ncnc(-c3cccnc3NCc3cccs3)n2)cc1 [Compound 1083]
Response: > 6.00

Prompt: For Kdr (Homo sapiens, UniProt P35968), give pIC50 of the listed compound: COc1ccc(CNc2ncccc2-c2ncnc(Nc3cc(OC)c(OC)c(OC)c3)n2)nc1 [Compound 1085]
Response: > 6.08

Prompt: For Kdr (Homo sapiens, UniProt P35968), give pIC50 of the listed compound: CC(C)(C)c1cc(Nc2ncnc(Nc3cccc(C(N)=O)c3)n2)[nH]n1 [Compound 500]
Response: 5.17 to 5.94

Prompt: For Kdr (Homo sapiens, UniProt P35968), give pIC50 of the listed compound: CC(=O)c1ccc(Nc2ncnc(Nc3ccc4c(cnn4Cc4ccccc4)c3)n2)cc1 [Compound 730]
Response: 5.26 to 6.04

Recorded values, source patent US7074789B2.
